# Tested On: wild-type GCase (Homo sapiens (Human))
# Test: GCase enzyme activity assay (4MU-β-Glc, no taurocholate)
# Format: biochemical
# Recorded Conditions: Table 5, pH 5.9, mean ± SD; read-out: IC50
pIC50: −log10 of the molar value.
Property Name: pIC50

Compound: Cc1ccc(-c2nc(NC3Cc4ccccc4C3)c3ccccc3n2)cn1 [Compound 11c]
pIC50: 7.53
//
Compound: Cc1ccncc1-c1nc(NC2Cc3ccccc3C2)c2ccccc2n1 [Compound 11a]
pIC50: 6.91
//
Compound: Cc1cncc(-c2nc(NC3Cc4ccccc4C3)c3ccccc3n2)c1 [Compound 11b]
pIC50: 7.90
//
Compound: c1coc(-c2nc(NC3Cc4ccccc4C3)c3ccccc3n2)c1 [Compound 11h]
pIC50: 7.68

[P] c1ccc(-c2nc(NC3Cc4ccccc4C3)c3ccccc3n2)cc1 [Compound 11d]
[Q] c1ccc2c(c1)CC(Nc1nc(-c3ccncc3)nc3ccccc13)C2 [Compound 11e]
Request: Compare P and Q and name the one whose reported pIC50 is smaller. Kindly give the label for the entry you pick.
Result: Q

###

# Tested On: Glucocerebrosidase (Homo sapiens (Human))
# Test: Glucocerebrosidase activity assay with blue substrate (4MU-Glc)
# Format: biochemical
# Recorded Conditions: marked (inh), inhibitor; read-out: IC50 or AC50 (inh)
pIC50: −log10 of the molar value.
Property Name: pIC50

Compound: c1cncc(-c2nc(NC3CC3)c3ccccc3n2)c1 [compound 42]
pIC50: 4.40
//
Compound: CN(c1nc(-c2cccnc2)nc2ccccc12)C1CCc2ccccc2C1 (stereo not drawn) [compound 75]
pIC50: 5.80
//
Compound: c1ccc(CCNc2nc(-c3cccnc3)nc3ccccc23)cc1 [compound 60]
pIC50: 6.95
//
Compound: c1ccc(CN2CCC(Nc3nc(-c4cccnc4)nc4ccccc34)CC2)cc1 [compound 44]
pIC50: 4.50
//
Compound: c1cncc(CCNc2nc(-c3cccnc3)nc3ccccc23)c1 [compound 70]
pIC50: 5.30

[1] c1cncc(-c2nc(N3CCNCC3)c3ccccc3n2)c1 [compound 23]
[2] c1cncc(-c2nc(NC3CCc4ccccc43)c3ccccc3n2)c1 (stereo not drawn) [compound 67]
Request: Of the two listed items, 1 and 2 , which carries the larger pIC50 figure? When you have decided, please share the label of that item.
Result: 2

[a] Fc1cccc(CCNc2nc(-c3cccnc3)nc3ccccc23)c1 [compound 55]
[b] CC1CCCCC1Nc1nc(-c2cccnc2)nc2ccccc12 (stereo not drawn) [compound 48]
Request: Lowest pIC50? choose a or b Please identify the chosen entry by its label.
Result: a

###

# Tested On: GCase (Homo sapiens (Human))
Property Name: Kd (nM)
Respond numerically; units are nM and should not be typed.

Request: Note down Kd recorded for `CN(C)c1ccc2c(-c3ccc(C(=O)NCCCCCC(=O)Nc4ccc(-c5nc(NC6Cc7ccccc7C6)c6ccccc6n5)cc4)cc3C(=O)O)c3ccc(=[N+](C)C)cc-3oc2c1`
Result: 79

###

# Tested On: wild-type GCase (Homo sapiens (Human), UniProt P04062)
# Sequence (P04062 40-536): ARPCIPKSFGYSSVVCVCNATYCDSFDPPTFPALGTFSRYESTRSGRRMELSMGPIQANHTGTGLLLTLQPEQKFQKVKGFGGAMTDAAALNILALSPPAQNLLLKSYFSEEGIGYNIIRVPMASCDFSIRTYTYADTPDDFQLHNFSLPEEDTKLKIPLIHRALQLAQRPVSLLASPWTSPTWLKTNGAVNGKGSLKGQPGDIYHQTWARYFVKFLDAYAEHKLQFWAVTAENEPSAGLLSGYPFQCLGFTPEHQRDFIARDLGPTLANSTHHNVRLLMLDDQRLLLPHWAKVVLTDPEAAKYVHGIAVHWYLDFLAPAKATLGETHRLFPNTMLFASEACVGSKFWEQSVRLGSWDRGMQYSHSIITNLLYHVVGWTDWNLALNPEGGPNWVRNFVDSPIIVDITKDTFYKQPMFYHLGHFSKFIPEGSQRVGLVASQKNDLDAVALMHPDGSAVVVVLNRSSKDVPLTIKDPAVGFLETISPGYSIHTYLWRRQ
# Test: GCase enzyme activity assay (4MU-β-Glc, no taurocholate)
# Type: biochemical
# Recorded Conditions: pH 5.0, mean ± SD; read-out: IC50 pH 5.0
pIC50: −log10 of the molar value.
Property Name: pIC50

Reference set, count: 2
Molecule: c1ccc(-c2nc(NC3Cc4ccccc4C3)c3ccccc3n2)cc1 [Compound 11d]
pIC50: 7.98
--
Molecule: c1csc(-c2nc(NC3Cc4ccccc4C3)c3ccccc3n2)c1 [Compound 11f]
pIC50: 7.86

[a] c1ccc2c(c1)CC(Nc1nc(-c3ccsc3)nc3ccccc13)C2 [Compound 11g]
[b] c1cncc(-c2nc(NC3Cc4ccccc4C3)c3ccccc3n2)c1
Request: Parameter check: reported pIC50 is higher for which label, a or b ? Lab log: write the label of the selected item as the result.
Result: a

###

# Tested On: Glucocerebrosidase (Homo sapiens (Human), UniProt P04062)
# Test: Glucocerebrosidase activity assay with blue substrate (4MU-Glc)
# Format: biochemical
# Recorded Conditions: marked inhibitor, nM indicated; read-out: Activity AC50 or IC50 (inhibitor)
Property Name: IC50 (nM)

Compound: O=C(CCCC[C@@H]1SC[C@@H]2NC(=O)N[C@@H]21)NCCOCCOCCOCCOCCC(=O)NCCCCCC(=O)Nc1ccc(-c2nc(NC3Cc4ccccc4C3)c3ccccc3n2)cc1 [compound 156]
Units: nM
Quantitative Result: 1.95
--
Compound: CC(C)(C)OC(=O)NCCCCCC(=O)Nc1ccc(-c2nc(NC3Cc4ccccc4C3)c3ccccc3n2)cc1 [compound 145]
Units: nM
Quantitative Result: 5.6

[P] NCCCCCC(=O)Nc1ccc(-c2nc(NC3Cc4ccccc4C3)c3ccccc3n2)cc1 [compound 147]
[Q] CC(C)(C)OC(=O)NCCOCCOCC(=O)Nc1ccc(-c2nc(NC3Cc4ccccc4C3)c3ccccc3n2)cc1 [compound 146]
Request: Decide: P or Q , by lowest recorded IC50. Respond using the label that marks the chosen record.
Result: P
(P: 7.5 nM, Q: 39.8 nM)
